# TEST_PROTOCOL: soluble on expression in E. coli; label from the status in PepcDB or PDB records
PARAMETER: soluble on expression in E. coli

>>> meas_value("MARKKVQRKLDGWKSKEWYNIEAPAYLNRVIVGTTMAGDPSLLVGRNVETTVGELTNDMTKNNTKVILRVNNVVGDIATTDLMGHELTTDYVRSIVKRQTSRIDANVDVRTKDGFVIRVKPTCFTIKRARSSQMQAIREMMVDIVKKRASETDFETFMQEAILGRLSAAIYRQAKFIYPLRRVEIRKTQVEAMPAAAPAAPAAALEHHHHHH")
"soluble"
>>> meas_value("ALAKRIDAALILKDGRVVKGSNFENLRDSGDPVELGKFYSEIGIDELSFWDITASVEKRKTMLELVEKVAEQIDIPITVGGGIYDFETASELILRGADKVEINTAAVENPSLITQIAQTFGSQAVVVYIAAKRVDGEFMVFTYSGTKNTGILLRDWVVEVEKRGAGEIVLGSIDRLGTKSGYDTEMIRFVRPLTTLPIIAHRGAGKTEHFLEAFLAGADAAKADSVFHSREIDVRELKEYLKKHGVNVRLEGLGSLEHHHHHH")
"soluble"
>>> meas_value("MDSAFVDRAWDKWVTTGNVGSSDFEKKMKNPERKNKMLLFGDLIVGICSGPSRLLSTIAKQEGIDIYPVDLKQFIDFMRCGNLPTETFVLGSNQCKNIITSIHENWFAARCLNTSQPAGEGAIVMQTAVYVLVALYDGSIGSASQAMAAADQFASQLSRKNF")
"soluble"
>>> meas_value("MSKPYLAGLLLISPWALAASGSWSSESFGGTMTRGQQSVKSKPLQSPSPLPPGARATTVHWKIKTDGLTPSGLRIRLCNAARCVRLAGWAGEMPLPAGIAPEGPFRFEYHASEAGTLRSPVTILSNQLTVSYHSSH")
"not soluble"
>>> meas_value("MRCPFCGAEDTSVVDSRISEEGARIRRRRRCVECEKRFTTYETVELRFPQVIKQDGNRVEFNREKLYTSFARALHKRPVPTGQVDAAIERILQKLLGSGVQEISSRTIGEWVMQELYSLDKVAYIRFASVYRSFEDVGDFQEVIREVQSSPQNGDGPSS")
"not soluble"
>>> meas_value("NIYLDKRITKQATQFLEAARAIDSREHLISGYRSVAYQEKLFNSYVTQEMTSNPNLTRGQAEKLVKTYSQPAGASEHQTGLAMDMSTVDSLNESDPRVVSQLKKIAPQYGFVLRFPDGKTAETGVGYEDWHYRYVGV")
"not soluble"
>>> meas_value("MKLMFASDIHGSLPATERVLERFAQSGARWLVILGDVLNHGPRNALPEGYAPAQVAERLNAVATQIIAVRGNCDSEVDQMLLHFPITAPWQQILTQERRLFLTHGHLFGPTNLPALHTGDVLVYGHTHLPVAQQQEGLYHFNPGSVSIPKGGYAASYGILDDNVLSVIALNDQSIIAQVAINS")
"not soluble"
>>> meas_value("MDLIAPEDVVVTLSHAGYAKRQPVSAYRAQRRGGRGRSAASTKEEDFIDQLWLVNTHDTLLTFTSSGKVFWLPVHQLPEAGSNARGRPIINWIPLESGERVQAVLPVREYADNRYVFMATRNGTVKKTPLSEFAFRLARGKIAINLDEGDALVGVALTDGDRDVLLFASNGKTVRFGESTVRSMGRTATGVRGIRLAKGEEVVSLIVSERAGGVEDEVEDESAEEVVETTDGAEPAVIDVADNGDVAYILTATENGYGKRTPLAEYPRKGRGTQGVIGIQTTERNGKLVRAVLLGSTDEVMLISDGGTLVRTRGSEISRVGRNTQGVTLIRLSKGEKLQAVERLDASLEEPEDVVDEAVAITSDAPPAEG")
"soluble"
>>> meas_value("MPLDPQIKPILERIRALSIAASPQELRRQVEEQSRLLTAAVQEPIAETRDVHIPVSGGSIRARVYFPKKAAGLPAVLYYHGGGFVFGSIETHDHICRRLSRLSDSVVVSVDYRLAPEYKFPTAVEDAYAALKWVADRADELGVDPDRIAVAGDSAGGNLAAVVSILDRNSGEKLVKKQVLIYPVVNMTGVPTASLVEFGVAETTSLPIELMVWFGRQYLKRPEEAYDFKASPLLADLGGLPPALVVTAEYDPLRDEGELYAYKMKASGSRAVAVRFAGMVHGFVSFYPFVDAGREALDLAAASIRSGLQPS")
"soluble"
>>> meas_value("MSLSKQISNLNSSSNKPKILSLFSGCGGLDLGFHQAGCETVWANDFSHWACESFRKNIGDVIVEGDIEQINPNDPTIPDCDIILGGFPCQDFSMIWKQPGLEGERGNLYKSFLRFVNAKKPKVFVAENVKGLLTANKKKAIQQIITDFENCGYYVQAKLYNFAEFGVPQFRERVLIVGVRLDTGFDFRHPEPTHNETGENGLKPYVTAGQAISNIPQNASNNELLKISDKTRRMLELIPEGGNFTDIPKDHPLYVKGMISHVYRRMHRNEPSKTIIAAGGGGTWGYHFPEPRAFTNRERARLQSFPDDFEFVGSTTEVRRQIGNAVPPQGVVELAKSILPIFSDNYEKVDLHEKLVEEKEILFHDRLSKIRGGKEGHHHHHH")
"soluble"
>>> meas_value("SRVQILKDFVKQHFPATPLLDYALEVEKITTSKKPNLILNVDGFIGVAFVDMLRNCGSFTREEADEYVDIGALNGIFVLGRSMGFIGHYLDQKRLKQGLYRHPWDDISYVLPEHMSM")
"soluble"
>>> meas_value("MGSDKIHHHHHHMKFFDREKEIAEILHILNREPDDVYFIYGPINSGKTALINEIINNRLDKDKYVVFYFDLREIFISKYDDFIEVLFEEYEGNKKPVEIIKSLIKDVPSLCGIPAPKNTLEEILKKKTTKNVFRYITKVLMDIKKEGKQPILIIDELQKIGDMKINGFLIYELFNYFVSLTKHKHLCHVFCLSSDSLFIERVYNEAMLDGRAKYLLVDDFDKETALKFMDFLAKENNISLTNEDKELIYNYVGGKPKDIKYVVEESNFKDLKEVLDYLLNDEISKLDMFLEILDYSKPRVEVGNEVIEINKEDIIKALRLFKDKYEIPKKDIPTPVYVYLVKENILFLNPQKRILKPQSYLVWNAIKRLL")
"not soluble"
